- System: Pseudomonas fluorescens HPPD polypeptide (wild-type and mutants)
- Test description: Coupled HPPD activity assay: turnover and residual turnover in crude HPPD polypeptide extracts with and without Cmpd. 1
- Type: biochemical
- Test context: presence of 100 μM Cmpd. 1; changes in absorbance (OD) at 320 nm in the coupled assay, 30 min
- Protocol: For the generation of crude HPPD polypeptide extract in micro titer plates (MTP) for the determination of residual activity in inhibition assays, cells were grown in 40 or 150 μl LB medium containing 1% Glucose (Merck, Darmstadt, Germany) and 100 μg/ml ampicillin in a standard 96 well plate (Thermo Fisher Scientific, Waltham, USA) incubated for about 18 h in a humidity incubator at 37° C. […]
Measure: Residual turnover
Give bare numbers.

Recorded Residual turnover for SEQ ID NO:59 (protein, mutant HPPD polypeptide) MADLYENPMGLMGFEFIEFASPTPGTLEPIFEIMGFTKVATHRSKNVHLYRQGEINLILNNEPNSIASYFAAEHGPSVCGMAFRVKDSQKAYNRALELGAQPIHIDTGPMELNLPAIKGIGGAPLYLIDRFGEGSSIYDIDFVYLEGVERNPVGAGLKVIDHLTHNVYRGRMVYWANFYEKLFNFREARYFDIKGEYTGLTSKAMSAPDGMIRIPLNEESSKGAGQIEEFLMQFNGEGIQHVAFLTDDLVKTWDALKKIGMRFLTAPGDEYYEMLEGRLPDHGEPVDQLQARGILLDGSSVEGDKRLLLQIFSEKLMGPVFFEFIQRKGDDGFGPDSFKVLFEQMERDQVRRGVLTAD , please?
0.126

Residual turnover lookup needed for SEQ ID NO:27 (protein, mutant HPPD polypeptide) MADLYENPMGLMGFEFIEFASPTPGTLEPIFEIMGFTKVATHRSKNVHLYRQGEINLILNNEPNSIASYFAAEHGPSVCGMAFRVKDSQKAYNRALELGAQPIHIDTGPMELNLPAIKGIGGAPLYLIDRFGEGSSIYDIDFVYLEGVERNPVGAGLKVIDHLTHNVYRGRMVYWANFYEKLFNFREARYFDIKGEYTGLTSKAMSAPDGMIRIPLNEESSKGAGQIEEFLMQFNGEGIQHVAFLTDDLVKTWDALKKIGMRFLTAPGDEYYEMLEGRLPDHGEPVDQLQARGILLDGSSVEGDKRLLLQIFSERLMGPVFFEFIQRKGDDGFGPHSFKVLFESIERDQVRRGVLTAD , thanks.
0.153

May I ask what Residual turnover has been recorded for SEQ ID NO:68 (protein, mutant HPPD polypeptide) MADLYENPMGLMGFEFIEFASPTPGTLEPIFEIMGFTKVATHRSKNVHLYRQGEINLILNNEPNSIASYFAAEHGPSVCGMAFRVKDSQKAYNRALELGAQPIHIDTGPMELNLPAIKGIGGAPLYLIDRFGEGSSIYDIDFVYLEGVERNPVGAGLKVIDHLTHNVYRGRMVYWANFYEKLFNFREARYFDIKGEYTGLTSKAMSAPDGMIKIALNEESSKGAGQIEEFLMQFNGEGIQHVAFLTDDLVKTWDALKKIGMRFLTAPGDEYYEMLEGRLPDHGEPVDQLQARGILLDGSSVEGDKRLLLQIFSEQLMGPVFFEFIQRKGDDGFGPDSFKVLFEQIERDQVRRGVLTAD ?
0.134

Now turn to the next molecule.
Quick one: Residual turnover of SEQ ID NO:15 (protein, mutant HPPD polypeptide) MADLYENPMGLMGFEFIEFASPTPGTLEPIFEIMGFTKVATHRSKNVHLYRQGEINLILNNEPNSIASYFAAEHGPSVCGMAFRVKDSQKAYNRALELGAQPIHIDTGPMELNLPAIKGIGGAPLYLIDRFGEGSSIYDIDFVYLEGVERNPVGAGLKVIDHLTHNVYRGRMVYWANFYEKLFNFREARYFDIKGEYTGLTSKAMSAPDGMIRIPLNEESSKGAGQIEEFLMQFNGEGIQHVAFLTDDLVKTWDALKKIGMRFMTAPGDEYYEMLEGRLPDHGEPVDQLQARGILLDGSSVEGDKRLLLQIFSEQLMGPVFFEFIQRKGDDGFGPDSFKVLFESMERDQVRRGVLTAD ?
0.062
